Tested on: 885512-296-R-J2-PDC complex spheroid viability;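 further: spheroids exposed to the compounds for one week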
Assay name: Anticancer human tumor 885512-296-R-J2-PDC patient-derived breast carcinoma cell line growth inhibition [GQUAD]; active means viability on the fitted dose curve at most 10% of control; inactive means the rest
Test context: second compound 0.1 µM; first compound 0.316 µM
Give one outcome, nothing more. List: Yes for active, No for inactive

Before answering, review these 2 worked examples.
O=C(NO)c1cnc(N2CCN(S(=O)(=O)c3ccc4ccccc4c3)CC2)nc1 + CN(C)c1ccc(Nc2c3ccc(NC(=O)CCN4CCCC4)cc3nc3cc(NC(=O)CCN4CCCC4)ccc23)cc1    No
CCc1c2c(nc3ccc(O)cc13)-c1cc3c(c(=O)n1C2)COC(=O)[C@]3(O)CC + CN(C)c1ccc(Nc2c3ccc(NC(=O)CCN4CCCC4)cc3nc3cc(NC(=O)CCN4CCCC4)ccc23)cc1    Yes

Given Cc1[nH]c2ccccc2c1CCNCc1ccc(/C=C/C(=O)NO)cc1 + CN(C)c1ccc(Nc2c3ccc(NC(=O)CCN4CCCC4)cc3nc3cc(NC(=O)CCN4CCCC4)ccc23)cc1 , state the outcome it received in this test.
Yes
